# system.name: human (h) PAR2 (Homo sapiens, UniProt P55085)
# Construct: expressed in transfected cells; host or cells: KNRK cells (KNRK-hPAR2)
# measurement.description: IP1 accumulation assay in KNRK-hPAR2 cells
# Type: cell-based
# experimental.parameters: 2F (100 nM)-induced IP1, KNRK-hPAR2 cells; read-out: KNRK-PAR2 100 nM 2F (IC50)
measured.metric: pIC50
Please keep in mind that pIC50 is minus log10 of the molar concentration; only the number is needed.

What the record says about "Cc1nc(C(=O)N2CCN(C(=O)c3cn4nc(-c5ccc(F)cc5)cc(C(C)(C)C)c4n3)C(C)(C)C2)n[nH]1" : pIC50 is 6.18

----------
# system.name: PAR2 (Homo sapiens, UniProt P55085)
# Construct: HT-29 cells and HEK293 cells, which express endogenous PAR2; endogenous in cells; host or cells: HT-29
# Sequence (P55085 26-397): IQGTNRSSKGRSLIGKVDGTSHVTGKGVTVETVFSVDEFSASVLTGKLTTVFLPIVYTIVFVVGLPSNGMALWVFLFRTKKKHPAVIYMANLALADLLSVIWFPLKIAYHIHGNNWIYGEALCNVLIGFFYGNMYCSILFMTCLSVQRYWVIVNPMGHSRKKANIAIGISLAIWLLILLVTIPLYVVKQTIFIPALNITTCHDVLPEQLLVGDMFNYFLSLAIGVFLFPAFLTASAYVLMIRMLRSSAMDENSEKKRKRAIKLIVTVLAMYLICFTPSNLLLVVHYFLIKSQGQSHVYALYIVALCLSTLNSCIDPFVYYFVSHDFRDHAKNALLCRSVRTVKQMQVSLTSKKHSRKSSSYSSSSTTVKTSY
# measurement.description: IP1 accumulation assay in HT-29 cells (endogenous PAR2)
# Type: cell-based
# experimental.parameters: 2F (300 nM)-induced IP1, HT-29 cells; read-out: HT-29 300 nM 2F (IC50)
measured.metric: log10 of IC50 (log10 of the value in nM)
log10 IC50, nM

Form field log10 of IC50 for item CC(C)(C)c1cc(-c2ccc(F)cc2)nn2cc(C(=O)N3CCN(C(=O)[C@H]4CC[C@@H](C(=O)NC[C@H](O)[C@@H](O)[C@H](O)[C@H](O)CO)CC4)CC3(C)C)nc12 [Compound 3] on PAR2 (Homo sapiens, UniProt P55085): 1.60

Form field log10 of IC50 for item CC(C)(C)c1cc(-c2ccc(F)cc2)nn2cc(C(=O)N3CCN(C(=O)[C@H]4CC[C@@H](NC(=O)[C@H](O)[C@@H](O)[C@@H](O)[C@H](O)C(N)=O)CC4)CC3(C)C)nc12 [Compound 7] on PAR2 (Homo sapiens, UniProt P55085): 2.61

Form field log10 of IC50 for item CC(C)CCC[C@@H](C)[C@H]1CCC2C3CCC4C[C@@H](OC(=O)C[C@H](NC(=O)CCOCCOCCOCCOCCOCCOCCOCCOCCNC(=O)CCCNC(=O)Cn5cc(C(=O)N6CCN(C(=O)c7cn8nc(-c9ccc(F)cc9)cc(C(C)(C)C)c8n7)C(C)(C)C6)nn5)C(N)=O)CC[C@]4(C)C3CC[C@@]21C (some centres unmarked) [Compound 13] on PAR2 (Homo sapiens, UniProt P55085): 2.87

Form field log10 of IC50 for item CC(C)CCC[C@@H](C)[C@H]1CC[C@H]2[C@@H]3CC[C@@H]4C[C@@H](OC(=O)C[C@H](NC(=O)CCOCCOCCOCCOCCOCCOCCNC(=O)[C@@H](O)[C@H](O)[C@H](O)[C@@H](O)C(=O)NC5CCC(C(=O)N6CCN(C(=O)c7cn8nc(-c9ccc(F)cc9)cc(C(C)(C)C)c8n7)C(C)(C)C6)CC5)C(N)=O)CC[C@]4(C)[C@H]3CC[C@]12C (some centres unmarked) [Compound 16] on PAR2 (Homo sapiens, UniProt P55085): 3.32

Form field log10 of IC50 for item CC(C)CCC[C@@H](C)[C@H]1CCC2C3CCC4C[C@@H](OC(=O)C[C@H](NC(=O)CCOCCOCCOCCOCCOCCOCCOCCOCCNC(=O)Cn5cc(C(=O)N6CCN(C(=O)c7cn8nc(-c9ccc(F)cc9)cc(C(C)(C)C)c8n7)C(C)(C)C6)nn5)C(N)=O)CC[C@]4(C)C3CC[C@@]21C (some centres unmarked) [Compound 12] on PAR2 (Homo sapiens, UniProt P55085): 2.92

----------
# system.name: PAR2 (Homo sapiens, UniProt P55085)
# Construct: HT-29 cells and HEK293 cells, which express endogenous PAR2; endogenous in cells; host or cells: HT-29
# measurement.description: IP1 accumulation assay in HT-29 cells (endogenous PAR2)
# Assay type: cell-based
# experimental.parameters: 2F (300 nM)-induced IP1, HT-29 cells; read-out: HT-29 300 nM 2F (IC50)
I'd appreciate it if you could supply IC50 values for the items below.
Hi! Could you send only the number? It should be in µM, unit omitted.

What the record says about "CC(C)(C)c1cc(-c2ccc(F)cc2)nn2cc(C(=O)N3CCN(C(=O)CCS(=O)(=O)O)CC3(C)C)nc12" : IC50 is 5.9

What the record says about CC(C)CCC[C@@H](C)[C@H]1CC[C@H]2[C@@H]3CCC4CC(OC(=O)C[C@H](NC(=O)CCOCCOCCOCCOCCOCCOCCNC(=O)[C@H](CCCNC(=N)N)NC(=O)CCOCCOCCOCCOCCOCCOCCNC(=O)Cn5cc(C(=O)N6CCN(C(=O)c7cn8nc(-c9ccc(F)cc9)cc(C(C)(C)C)c8n7)C(C)(C)C6)nn5)C(N)=O)CC[C@]4(C)[C@H]3CC[C@]12C (stereo partly shown) : IC50 is 1.55

What the record says about "CC(C)CCC[C@@H](C)[C@H]1CC[C@H]2[C@@H]3CC=C4C[C@@H](OC(=O)NCCCC[C@@H](NC(=O)CCOCCOCCOCCOCCOCCOCCOCCOCCOCCOCCOCCOCCNC(=O)Cn5cc(C(=O)N6CCN(C(=O)c7cn8nc(-c9ccc(F)cc9)cc(C(C)(C)C)c8n7)C(C)(C)C6)nn5)C(=O)NN)CC[C@]4(C)[C@H]3CC[C@]12C" : IC50 is 5.63

What the record says about CC(C)CCC[C@@H](C)[C@H]1CCC2C3CCC4C[C@@H](OC(=O)C[C@H](NC(=O)CCOCCOCCOCCOCCNC(=O)Cn5cc(C(=O)N6CCN(C(=O)c7cn8nc(-c9ccc(F)cc9)cc(C(C)(C)C)c8n7)C(C)(C)C6)nn5)C(N)=O)CC[C@]4(C)C3CC[C@@]21C (stereo partly shown) : IC50 is 0.97

----------
I'd appreciate it if you could supply IC50 values for the items below.
# system.name: PAR2 (Homo sapiens, UniProt P55085)
# Construct: HT-29 cells and HEK293 cells, which express endogenous PAR2; endogenous in cells; host or cells: HT-29
# measurement.description: IP1 accumulation assay in HT-29 cells (endogenous PAR2)
# Format: cell-based
# experimental.parameters: 2F (300 nM)-induced IP1, HT-29 cells; read-out: HT-29 300 nM 2F pIC50 ± SEM (converted)
Hi! Could you send only the number? It should be in nM, unit omitted.

What the record says about CC(C)CCCC(C)[C@H]1CCC2C3CCC4C[C@@H](OC(=O)CC(NC(=O)CCOCCOCCOCCOCCOCCOCCOCCOCCOCCOCCOCCOCCNC(=O)Cn5cc(C(=O)N6CCN(C(=O)c7cn8nc(-c9ccc(F)cc9)cc(C(C)(C)C)c8n7)C(C)(C)C6)nn5)C(N)=O)CC[C@]4(C)C3CC[C@@]21C (stereo in doubt) : IC50 is 661

What the record says about "CC(C)(C)c1cc(-c2ccc(F)cc2)nn2cc(C(=O)N3CCN(C(=O)[C@H]4CC[C@@H](C(=O)NC[C@H](O)[C@@H](O)[C@H](O)[C@H](O)CO)CC4)CC3(C)C)nc12" : IC50 is 40.7

----------
# system.name: PAR2 (Homo sapiens, UniProt P55085)
# Construct: HT-29 cells and HEK293 cells, which express endogenous PAR2; endogenous in cells; host or cells: HT-29
# measurement.description: IP1 accumulation assay in HT-29 cells (endogenous PAR2)
# Assay type: cell-based
# experimental.parameters: 2F (300 nM)-induced IP1, HT-29 cells; read-out: HT-29 300 nM 2F (IC50)
I'd appreciate it if you could supply IC50 values for the items below.
Hi! Could you send only the number? It should be in nM, unit omitted.

Form field IC50 for item CC(C)CCC[C@@H](C)[C@H]1CCC2C3CCC4C[C@@H](OC(=O)C[C@H](NC(=O)CCOCCOCCNC(=O)Cn5cc(C(=O)N6CCN(C(=O)c7cn8nc(-c9ccc(F)cc9)cc(C(C)(C)C)c8n7)C(C)(C)C6)nn5)C(N)=O)CC[C@]4(C)C3CC[C@@]21C (stereo partly shown) [Compound 9] on PAR2 (Homo sapiens, UniProt P55085): 700

Form field IC50 for item CC(C)CCCC(C)[C@H]1CCC2C3CCC4C[C@@H](OC(=O)CC(NC(=O)CCOCCOCCOCCOCCOCCOCCOCCOCCOCCOCCOCCOCCNC(=O)Cn5cc(C(=O)N6CCN(C(=O)c7cn8nc(-c9ccc(F)cc9)cc(C(C)(C)C)c8n7)C(C)(C)C6)nn5)C(N)=O)CC[C@]4(C)C3CC[C@@]21C (stereo in doubt) [Compound 10] on PAR2 (Homo sapiens, UniProt P55085): 670

Form field IC50 for item CC(C)(C)c1cc(-c2ccc(F)cc2)nn2cc(C(=O)N3CCN(C(=O)c4cn(CC(=O)O)nn4)CC3(C)C)nc12 [Compound 2] on PAR2 (Homo sapiens, UniProt P55085): 140

Form field IC50 for item CC(C)(C)c1cc(-c2ccc(F)cc2)nn2cc(C(=O)N3CCN(C(=O)c4cn(CC(=O)NCCOCCOCCOCCOCCOCCO)nn4)CC3(C)C)nc12 [Compound 6] on PAR2 (Homo sapiens, UniProt P55085): 971

src = patent US20200383985A1
